Reference for the values: patent US20240376097A1

# Study System: Recombinant human Bcl-2 protein (Homo sapiens (Human), UniProt P10415)
# Sequence (P10415 whole entry): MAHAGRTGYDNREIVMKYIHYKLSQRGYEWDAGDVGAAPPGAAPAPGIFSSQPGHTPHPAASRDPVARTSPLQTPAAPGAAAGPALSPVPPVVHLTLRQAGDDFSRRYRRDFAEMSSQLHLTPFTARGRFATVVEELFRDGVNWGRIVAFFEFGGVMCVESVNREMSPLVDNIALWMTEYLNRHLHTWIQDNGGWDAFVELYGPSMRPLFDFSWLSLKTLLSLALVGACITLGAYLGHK
# Test Description: Bcl-2 TR-FRET Assay
# Format: binding
# Reported Conditions: wild type Bcl-2; unit inferred; read-out: Bcl-2 WT
Quantity Kind: IC50

Consider the following illustrative entries.
[
  {
    "Compound": "COCCN1CCN(C2CC3(CCN(c4ccc(C(=O)NS(=O)(=O)c5cc6c(c([N+](=O)[O-])c5)N[C@H](C[C@H]5CC[C@H](O)CC5)CO6)c(Oc5cnc6[nH]ccc6c5)c4)CC3)C2)C(c2ccccc2C(C)C)C1 (stereo partly shown) [Example 14]",
    "IC50": "0.0065 nM"
  },
  {
    "Compound": "COc1ccc(CN2CCN(C3CC4(CCN(c5ccc(C(=O)NS(=O)(=O)c6ccc(NC[C@H]7CC[C@](C)(O)CC7)c([N+](=O)[O-])c6)c(Oc6cnc7[nH]cc(F)c7c6)c5)CC4)C3)[C@H](c3ccccc3C(C)C)C2)cc1OC [Example 127]",
    "IC50": "0.1 nM"
  }
]

For each of the items listed, what is its IC50?
1. CC(C)c1ccccc1C1CN(Cc2cccc3c2OCCO3)CCN1C1CC2(CCN(c3ccc(C(=O)NS(=O)(=O)c4ccc(NC[C@H]5CC[C@](C)(O)CC5)c([N+](=O)[O-])c4)c(Oc4cnc5[nH]ccc5c4)c3)CC2)C1 (stereo partly shown) [Example 79]
2. CC(C)c1ccccc1C1CN(Cc2cccc3c2OCCCO3)CCN1C1CC2(CCN(c3ccc(C(=O)NS(=O)(=O)c4ccc(NC[C@H]5CC[C@](C)(O)CC5)c([N+](=O)[O-])c4)c(Oc4cnc5[nH]ccc5c4)c3)CC2)C1 (stereo partly shown) [Example 107]

Key:
1. 0.16 nM
2. 0.11 nM
